Tested on: JHH-6 (Hepatocellular Carcinoma);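 also: after 72 h of two-drug dosing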
Experiment: Bliss excess, mean over the matrix (fraction); higher = more synergy

compound: NC1(C(=O)N[C@@H](CCO)c2ccc(Cl)cc2)CCN(c2ncnc3[nH]ccc23)CC1 [Capivasertib] + CCN(CCO)CCCOc1ccc2c(Nc3cc(CC(=O)Nc4cccc(F)c4)[nH]n3)ncnc2c1 [AZD2811] (first compound max 10 µM, 7x7, partner max 1 µM)
Bliss excess: -0.0301
//
compound: CC1(C)CCC(CN2CCN(c3ccc(C(=O)NS(=O)(=O)c4ccc(NCC5CCOCC5)c([N+](=O)[O-])c4)c(Oc4cnc5[nH]ccc5c4)c3)CC2)=C(c2ccc(Cl)cc2)C1 [Venetoclax] + Cc1cc2ncnn2cc1Nc1ncc2c(n1)n(C1CCOCC1)c(=O)n2C [AZD7648] (first compound max 1 µM, 7x7, partner max 10 µM)
Bliss excess: -0.0302
//
compound: COc1nnc2ccc(N3CCC(c4ccc(OCCN5CCN(C)C(=O)[C@H]5C)cc4)CC3)nn12 [AZD5153] + CN(CC[C@H](CSC1=CC=CC=C1)NC2=C(C=C(C=C2)S(=O)(=O)NC(=O)C3=CC=C(C=C3)N4CCC(CC4)[C@H](C5=CC=CC=C5C6=CC=C(C=C6)Cl)O)S(=O)(=O)C(F)(F)F)CCO [AZD4320] (first compound max 1 µM, 7x7, partner max 1 µM)
Bliss excess: -0.0296
